system: nutsedge, yellow; assay: Test C pre-/postemergence herbicide test; assay type: in vivo, Cyperus esculentus; conditions: Postemergence; 250 g ai/ha; scale 0 to 100 (0 no effect, 100 complete control)
QUANTITY: Plant response rating, Nutsedge, Yellow
Reply briefly: the number, and no unit.

Recall and state the measured Plant response rating, Nutsedge, Yellow for O=C1NCC(c2cccc(C(F)(F)F)c2)C1C(=O)Nc1ccccc1Cl (stereo not drawn) .
0

Query Plant response rating, Nutsedge, Yellow for Cc1cccc(NC(=O)C2C(=O)NCC2c2cccc(C(F)(F)F)c2)c1 (stereo not drawn)
0

Specify measured Plant response rating, Nutsedge, Yellow for O=C1NCC(c2cccc(OC(F)F)c2)C1C(=O)Nc1ccc(F)c(F)c1F (stereo not drawn) .
0

For O=C1NCC(c2cccc(C(F)(F)F)c2)C1C(=O)Nc1ccc(F)cc1F (racemic) , write its Plant response rating, Nutsedge, Yellow.
0

Identify measured Plant response rating, Nutsedge, Yellow corresponding to O=C1NCC(c2cc(F)c(F)c(F)c2)C1C(=O)Nc1ccccc1F (racemic)
10

Fill in Plant response rating, Nutsedge, Yellow for record O=C1NCC(c2cccc(Cl)c2)C1C(=O)Nc1cccc(F)c1F (racemic)
20

* * *

Would you kindly list Plant response rating, Rice for each of these compounds?
Test system: rice
Test: Test C flooded paddy test
Assay type: in vivo, Oryza sativa
Settings: Flood; 500 g ai/ha; scale 0 to 100
Description: Plant species in the flooded paddy test consisted of rice (Oryza sativa), sedge, umbrella (small-flower umbrella sedge, Cyperus difformis), ducksalad (Heteranthera limosa), and barnyardgrass (Echinochloa crus-galli) grown to the 2-leaf stage for testing. […] Treated plants and controls were maintained in a greenhouse for 13 to 15 days, after which time all species were compared to controls and visually evaluated. […]
Answer as a number with no unit attached.

Provide Plant response rating, Rice, system rice, entry O=C1NCC(c2cccc(C(F)(F)F)c2)C1C(=O)Nc1cccc(F)c1 (racemic)
0

Lab note: record Plant response rating, Rice of O=C1NCC(c2cccc(C(F)(F)F)c2)C1C(=O)Nc1ccc(F)cc1F (racemic) tested on rice.
15

Fetch value of Plant response rating, Rice on rice for O=C1NCC(c2ccc(Cl)cc2)C1C(=O)Nc1ccccc1F (racemic) .
0

Give Plant response rating, Rice for CN1CC(c2ccc(F)cc2)C(C(=O)Nc2cccc(F)c2F)C1=O (centres unmarked) tested on rice.
0

Return reported Plant response rating, Rice for target or system rice, item CN1CC(c2cccc(C(F)(F)F)c2)C(C(=O)Nc2ccccc2F)C1=O (centres unmarked) .
0

* * *

Consider the following molecules; for each one, report its Plant response rating, Barnyardgrass.
test system: barnyardgrass; assay: Test A pre-/postemergence herbicide test; type: in vivo, Echinochloa crus-galli; settings: Postemergence, 500 g ai/ha; 0 to 100 scale (0 no effect, 100 complete control)
Source text: […]
Just the number.

Respond only with Plant response rating, Barnyardgrass recorded for N#Cc1ccccc1NC(=O)C1C(=O)NCC1c1ccc(Cl)c(Cl)c1 (racemic)
0

Kindly indicate its recorded Plant response rating, Barnyardgrass. Item: O=C1NCC(c2ccc(Cl)nc2)C1C(=O)Nc1ccccc1C(F)(F)F (centres unmarked)
40

Item O=C1NCC(c2cc3ccccc3s2)C1C(=O)Nc1ccccc1C(F)(F)F (centres unmarked) : provide Plant response rating, Barnyardgrass
0

Dear colleague, please send me the reported Plant response rating, Barnyardgrass for O=C1NCC(c2cc(F)cc(F)c2)C1C(=O)Nc1cccc(F)c1F (racemic) when you can.
90

Let me know recorded Plant response rating, Barnyardgrass for COc1ncccc1NC(=O)C1C(=O)NCC1c1ccc(F)c(F)c1 (centres unmarked) , thanks.
0

Supply reported Plant response rating, Barnyardgrass belonging to this molecule: O=C1NCC(c2cccc(C(F)(F)F)c2)C1C(=O)Nc1ccc(F)c(F)c1F (centres unmarked)
90

// fetch Plant response rating, Barnyardgrass given entry O=C1NCC(c2cccc(C(F)(F)F)c2)C1C(=O)Nc1ccccc1F (racemic)
80

Please indicate Plant response rating, Barnyardgrass recorded for O=C1NCC(c2cccc(C(F)(F)F)c2)C1C(=O)Nc1cccc(Cl)c1F (centres unmarked) [Compound 316]
90

Every entry's value here was drawn from patent US10294202B2.
